B1: Caulobacter ParB omega fusion; a variant is named by its letters at X, in order, B8GW30 (parent)
chain: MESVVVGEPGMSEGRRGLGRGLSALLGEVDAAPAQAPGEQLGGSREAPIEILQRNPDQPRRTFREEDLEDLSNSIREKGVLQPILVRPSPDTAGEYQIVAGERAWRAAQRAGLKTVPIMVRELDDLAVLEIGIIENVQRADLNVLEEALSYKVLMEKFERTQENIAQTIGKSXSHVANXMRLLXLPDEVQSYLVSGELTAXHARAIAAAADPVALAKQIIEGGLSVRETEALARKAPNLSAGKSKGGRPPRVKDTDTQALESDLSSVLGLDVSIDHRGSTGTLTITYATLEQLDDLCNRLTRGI

Variants of: B1
Experiment: one-hybrid fitness for binding parS DNA (scaled: cognate 1, non-cognate 0); higher = stronger binding
Conditions: with parS DNA site
In all, about 81,000 sequences were measured (“one-hybrid fitness for binding parS DNA”: median about -0.17, highest 2% from about 0.51 on). This excerpt belongs to a sample that is enriched for the highest values.
Quantity: one-hybrid fitness for binding parS DNA

Write down one-hybrid fitness for binding parS DNA measured for item `ACAI`
≤ 0.2

Report one-hybrid fitness for binding parS DNA, nothing else, for this variant: `VNYS`
≤ 0.2

Using the record for `MHDG` , state its measured one-hybrid fitness for binding parS DNA.
≤ 0.2

Dear colleague, please send me the reported one-hybrid fitness for binding parS DNA for `DHPT` when you can.
≤ 0.2

Name the recorded one-hybrid fitness for binding parS DNA of the variant listed here: `RYMS`
0.963

Given `RHIG` , respond with its one-hybrid fitness for binding parS DNA.
0.705

Entry `RYMQ` needs its one-hybrid fitness for binding parS DNA filled in; supply it.
≤ 0.2

Quick one: give measured one-hybrid fitness for binding parS DNA for `RKSP`
≤ 0.2

# return one-hybrid fitness for binding parS DNA for each item in the list
1. VARE
2. RASH
3. RHNR
4. ICYT
5. RYMK
6. YTVS
7. RHNG

1: ≤ 0.2; 2: 0.225; 3: ≤ 0.2; 4: ≤ 0.2; 5: ≤ 0.2; 6: ≤ 0.2; 7: 0.953
